- System: Escherichia coli TOP10;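 further: peptides expressed intracellularly from a pBAD plasmid library in pooled LB shake-flask culture, induced with 0.3% L-arabinose, DNA abundance read by NGS, three biological replicates, DESeq2 with apeglm shrinkage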
- Assay Text: shrunken log2 fold change of peptide-encoding DNA abundance (4.5 h post-induction vs induction); higher = less antimicrobial activity (less host growth inhibition)
- Run Conditions: time post-induction: 4.5 h; library: site-saturation at positions 5, 18, 19, 20

Chain: RRIRTRPPRLPRPRPRPRKEPRP
shrunken log2 fold change: 0.102
//
Chain: RRIRFRPPRLPRPRPRPEHRPRP
shrunken log2 fold change: 0.105
//
Chain: RRIRIRPPRLPRPRPRPAANPRP
shrunken log2 fold change: 0.0204
//
Chain: RRIRLRPPRLPRPRPRPADFPRP
shrunken log2 fold change: -0.0534
//
Chain: RRIRYRPPRLPRPRPRPMGGPRP
shrunken log2 fold change: -0.264
//
Chain: RRIRYRPPRLPRPRPRPYYCPRP
shrunken log2 fold change: 0.00489
//
Chain: RRIRVRPPRLPRPRPRPSPSPRP
shrunken log2 fold change: -0.017
//
Chain: RRIRNRPPRLPRPRPRPPTLPRP
shrunken log2 fold change: -0.204
//
Chain: RRIRPRPPRLPRPRPRPTTNPRP
shrunken log2 fold change: 0.199
//
Chain: RRIRYRPPRLPRPRPRPTQCPRP
shrunken log2 fold change: -0.0863
//
Chain: RRIRERPPRLPRPRPRPHIQPRP
shrunken log2 fold change: -0.705
//
Chain: RRIRFRPPRLPRPRPRPDMHPRP
shrunken log2 fold change: 0.191
//
Chain: RRIRERPPRLPRPRPRPEMMPRP
shrunken log2 fold change: -0.269
//
Chain: RRIRLRPPRLPRPRPRPIPWPRP
shrunken log2 fold change: 0.0447
